Biological target: Platelet-activating factor acetylhydrolase (Homo sapiens, UniProt Q13093)
Sequence (Q13093 whole entry): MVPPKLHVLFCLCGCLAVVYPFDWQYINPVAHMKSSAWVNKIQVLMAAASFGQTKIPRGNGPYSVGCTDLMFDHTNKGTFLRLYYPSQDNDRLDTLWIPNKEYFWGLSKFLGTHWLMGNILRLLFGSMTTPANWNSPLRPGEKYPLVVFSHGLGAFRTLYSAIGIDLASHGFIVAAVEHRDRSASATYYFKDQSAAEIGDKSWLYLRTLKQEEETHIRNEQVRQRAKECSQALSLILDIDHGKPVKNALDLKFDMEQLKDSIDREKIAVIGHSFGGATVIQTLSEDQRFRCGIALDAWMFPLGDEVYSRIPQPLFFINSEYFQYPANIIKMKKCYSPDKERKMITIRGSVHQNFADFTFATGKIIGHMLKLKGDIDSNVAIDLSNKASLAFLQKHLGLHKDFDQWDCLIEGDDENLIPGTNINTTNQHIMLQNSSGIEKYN
Assay: Inhibition of isolated human lipoprotein associated phospholipase A2
ASSAY READOUT: IC50 (nM)

Solved cases (4 shown):
>  <SMILES STR>
O=C(CCCCCCCSc1nc(=O)c(Cc2cncnc2)cn1Cc1cccs1)c1ccc(Cl)cc1

>  <UNIT OF MEASURE>
nM

>  <TEST RESULT>
11

$$$$
>  <SMILES STR>
O=c1nc(SCc2ccc(F)c(F)c2)n(Cc2ccco2)cc1Cc1cncnc1

>  <UNIT OF MEASURE>
nM

>  <TEST RESULT>
235

$$$$
>  <SMILES STR>
O=c1nc(SCc2ccc(F)cc2)n(CCCCCCCCCc2ccccc2)cc1Cc1cncnc1

>  <UNIT OF MEASURE>
nM

>  <TEST RESULT>
25

$$$$
>  <SMILES STR>
O=c1nc(SCc2ccc(F)cc2)n(Cc2ccco2)cc1Cc1cncnc1

>  <UNIT OF MEASURE>
nM

>  <TEST RESULT>
300

$$$$

I. CCCCCCCC/C=C/CCCCCCCCNC(=O)Cn1cc(Cc2cncnc2)c(=O)nc1SCc1ccc(F)cc1
II. O=c1nc(SCc2cccc(F)c2)n(Cc2ccco2)cc1Cc1cncnc1
III. CCCCCCCCN(C)C(=O)Cn1cc(Cc2cncnc2)c(=O)nc1SCc1ccc(F)cc1
Sort the 3 compounds by IC50; largest first, smallest last. Give me the labels in the order the question wants. II, III, I

----------
Biological target: Platelet-activating factor acetylhydrolase (Homo sapiens)
Test: Inhibition of isolated human lipoprotein associated phospholipase A2
ASSAY READOUT: IC50 (nM)

Solved cases (5 shown):
>  <SMILES STR>
O=C(CCCCCCCSc1nc(=O)c(Cc2cncnc2)cn1Cc1ccccc1)c1ccc(Cl)cc1

>  <IC50, nM>
36

$$$$
>  <SMILES STR>
Cn1cc(Cc2cncnc2)c(=O)nc1SCc1ccccc1

>  <IC50, nM>
660

$$$$
>  <SMILES STR>
O=c1nc(SCc2ccc(F)c(F)c2)n(CCc2ccccc2)cc1Cc1cncnc1

>  <IC50, nM>
110

$$$$
>  <SMILES STR>
O=C(CCCCCCCSc1nc(=O)c(Cc2cncnc2)cn1Cc1ccco1)c1ccc(Cl)cc1

>  <IC50, nM>
16

$$$$
>  <SMILES STR>
CCCCCCCCCCCCCCCCCCNC(=O)CCCn1cc(Cc2cncnc2)c(=O)nc1SCc1ccc(F)cc1

>  <IC50, nM>
4

$$$$

A. O=c1nc(SCc2ccccc2)n(CCc2ccccc2)cc1Cc1cncnc1
B. CCCCCCCC/C=C/CCCCCCCCNC(=O)CCCn1cc(Cc2cncnc2)c(=O)nc1SCc1ccc(F)cc1
C. CCCCCCCCCCCn1cc(Cc2cncnc2)c(=O)nc1SCc1ccc(F)cc1
D. CCCCCCc1ccc(CCn2cc(Cc3cncnc3)c(=O)nc2SCc2ccc(F)cc2)cc1
Sort the 4 compounds by IC50; largest first, smallest last. Give me the labels in the order the question wants. A, C, D, B
(A: 210 nM, C: 19 nM, D: 12 nM, B: 0.7 nM)

P. O=c1nc(SCc2ccccc2)n(Cc2cccs2)cc1Cc1cncnc1
Q. O=c1nc(SCc2ccccc2)n(CCCc2ccccc2)cc1Cc1cncnc1
Please tell me which of the two, P or Q , has the higher reported IC50 value. In your reply, give the label of the chosen option. Q
(Q: 300 nM, P: 210 nM)

I. CCCCCCCN(C)C(=O)CCCn1cc(Cc2cncnc2)c(=O)nc1SCc1ccc(F)cc1
II. O=c1nc(SCc2cccc(Cl)c2)n(Cc2ccco2)cc1Cc1cncnc1
III. O=c1nc(SCc2ccccc2)n(Cc2ccccc2)cc1Cc1cncnc1
IV. CCCCCCCCC=CCCCCCCCCNC(=O)CCCn1cc(Cc2cncnc2)c(=O)nc1SCc1ccc(F)cc1
V. CCCCNC(=O)CCCCCn1cc(Cc2cncnc2)c(=O)nc1SCc1ccc(F)cc1
Put the items in order so that reported IC50 rises from first to last. Give me the labels in the order the question wants. IV, I, V, III, II
(IV: 0.4 nM, I: 3 nM, V: 260 nM, III: 450 nM, II: 960 nM)
